- TESTED ON: UniProtKB P24941
Reported Ki values are given for each entry in this list.

Request: Look up Ki for this compound: `N#CCc1ccc(Nc2nc(Nc3cc(C4CC4)n[nH]3)cc(-c3ccccc3)n2)cc1`
Response: < 1000 nM

Request: Look up Ki for this compound: `Cc1cc(Nc2nc(Nc3ccc4ncsc4c3)nc3ccccc23)[nH]n1`
Response: < 1000 nM

Request: Look up Ki for this compound: `Cc1cccc(Sc2nc(Nc3cc(C)n[nH]3)c3ccccc3n2)c1`
Response: < 1000 nM

Request: Look up Ki for this compound: `COc1ccc2c(Nc3cc(C)n[nH]3)nc(Sc3ccc(NC(C)=O)cc3)nc2c1`
Response: 1000 to 20000 nM

Request: Look up Ki for this compound: `OCCc1ccc(Nc2nc(Nc3cc(C4CC4)n[nH]3)c3ccccc3n2)cc1`
Response: < 1000 nM

Request: Look up Ki for this compound: `CCc1ccc(Nc2nc(Nc3cc(C4CC4)n[nH]3)c3ccccc3n2)cc1`
Response: < 1000 nM

Request: Look up Ki for this compound: `CC(=O)Nc1ccc(Sc2nc(Nc3cc(C)n[nH]3)c3cccc(O)c3n2)cc1`
Response: 1000 to 20000 nM

Request: Look up Ki for this compound: `CCCS(=O)(=O)Nc1ccc(Sc2nc(Nc3cc(C)n[nH]3)c3ccccc3n2)cc1`
Response: 1000 to 20000 nM

Where do these numbers come from? They come from the Kinase Knowledgebase extract (Sharma et al. 2016).
